# Ki per entry
biological target: HIV-1 Protease (Human immunodeficiency virus type 1 group M subtype B (isolate HXB2) (HIV-1), UniProt P04585); assay: Enzymatic (FRET fluorometric) assay for determining the inhibition constant (Ki) of compounds targeting the HIV protease; type: biochemical; conditions: KIGRAPHIC ENZYME HIV-1 Protease, Ki determined graphically; read-out: […] ENZYME HIV-1 Protease

Compound	Ki
Cc1ncccc1C(=O)N[C@@H](Cc1ccccc1Br)C(=O)NCCCC[C@@H](CO)N(CC(C)C)S(=O)(=O)c1ccc(N)cc1	0.183 nM
CC(C)CN([C@H](CO)CCCCNC(=O)C(Cc1ccccc1Br)NC(=O)c1ccncc1)S(=O)(=O)c1ccc(N)cc1 (stereo partly drawn)	0.182 nM
CC(C)CN([C@H](CO)CCCCNC(=O)[C@@H](NC(=O)NCc1ccncc1)C(c1ccccc1)c1ccccc1)S(=O)(=O)c1ccc(N)cc1	0.443 nM

====

IC50 values by entry
Biological target: HIV-1 Protease (Human immunodeficiency virus type 1 group M subtype B (isolate HXB2) (HIV-1))
Experiment: Enzymatic (FRET fluorometric) assay for determining the inhibition constant (Ki) of compounds targeting the HIV protease
Details: read-out: IC50 ENZYME HIV-1 Protease
Excerpt: Enzymatic Assay for Determining the Inhibition Constant (Ki) of Synthetic Compounds Targeting the HIV Protease This is a fluorometric assay based on the cleavage by protease of a substrate carrying a donor group (EDANS) and an acceptor group (DABCYL) on each side of the cleavage site, interacting together through fluorescence resonance energy transfer (FRET) as described by Matayoshi et al. (Science 247:[…], 1990). […] Graphs are traced and the Ki determined using GraphPad Prism software v. […]
Quantity name: IC50 (nM)

Compound	Readout units	Observed result
CC(C)CN([C@H](CO)CCCCNC(=O)[C@@H](Cc1ccccc1Br)NC(=O)c1ccc2c(c1)OCO2)S(=O)(=O)c1ccc(N)cc1 [EX. 41]	nM	0.336
CC(C)CN([C@H](CO)CCCCNC(=O)C(Cc1ccccc1Br)NC(=O)c1ccncc1)S(=O)(=O)c1ccc(N)cc1 (stereo partly shown) [EX. 42]	nM	0.618
Cc1ccccc1C[C@H](NC(=O)c1cccc(C)c1O)C(=O)NCCCC[C@@H](CO)N(CC(C)C)S(=O)(=O)c1ccc(N)cc1 [EX 23]	nM	4.12
CC(C)CN([C@H](CO)CCCCNC(=O)[C@@H](NS(=O)(=O)c1cccs1)C(c1ccccc1)c1ccccc1)S(=O)(=O)c1ccc(N)cc1 [EX 57]	nM	0.601
Cc1ccc(C(=O)N[C@@H](Cc2ccccc2Br)C(=O)NCCCC[C@@H](CO)N(CC(C)C)S(=O)(=O)c2ccc(N)cc2)cc1O [EX 37]	nM	0.683
Cc1ccc(C(=O)N[C@@H](CC2CCCCC2)C(=O)NCCCC[C@@H](CO)N(CC(C)C)S(=O)(=O)c2ccc(N)cc2)cn1 [EX 26]	nM	3.31
COC(=O)N[C@H](C(=O)NCCCC[C@H](CO)N(CC(C)C)S(=O)(=O)c1ccc2c(c1)N(C)CCO2)C(c1ccccc1)c1ccccc1 [EX 35]	nM	3.01
CC(C)CN([C@H](CO)CCCCNC(=O)[C@H](Cc1ccccc1Br)NC(=O)c1cnccn1)S(=O)(=O)c1ccc(N)cc1 [EX. 44]	nM	0.471
Cc1ccc(C(=O)N[C@@H](Cc2ccccc2C)C(=O)NCCCC[C@@H](CO)N(CC(C)C)S(=O)(=O)c2ccc(N)cc2)cn1 [EX 21]	nM	1.29
CC(C)CN([C@H](CO)CCCCNC(=O)[C@H](CC1CCCCC1)NC(=O)c1cccnc1)S(=O)(=O)c1ccc(N)cc1 [EX 25]	nM	2.88
CC(C)CN([C@H](CO)CCCCNC(=O)[C@H](Cc1ccccc1Br)NC(=O)N1CCOCC1)S(=O)(=O)c1ccc2c(c1)CCO2 [EX 17]	nM	0.599
CC(=O)N[C@H](C(=O)NCCCC[C@@H](C(N)=O)N(CC(C)C)S(=O)(=O)c1ccc(N)cc1)C(c1ccccc1)c1ccccc1 [EX. 8]	nM	1.07
CC(C)CN([C@H](CO)CCCCNC(=O)[C@H](Cc1ccccc1Br)NC(=O)c1cccc(O)n1)S(=O)(=O)c1ccc(N)cc1 [EX 19]	nM	0.29

====

This listing pairs compounds with measured EC50.
system: HIV-1 viral strain NL4-3; experiment: Anti-viral assay in vitro (MTT, infected MT-4 cells, six days); type: cell-based; settings: Human immunodeficiency virus 1, NL43, MT4, 144 h, read-out: ANTI-HIV-EC50 VIRAL STRAIN NL4-3
Quantity name: EC50 (nM)

Line notation	Readout units	Inequality sign	Observed result
COC(=O)N[C@@H](Cc1ccccc1F)C(=O)NCCCC[C@H](CO)N(CC(C)C)S(=O)(=O)c1ccc2c(c1)OCCN2C	nM	=	1830
CC(C)CN([C@H](CO)CCCCNC(=O)[C@H](Cc1ccc2ccccc2c1)NCc1ccccn1)S(=O)(=O)c1ccc(N)cc1	nM	>	50000
CC(C)CN([C@H](CO)CCCCNC(=O)[C@H](CC1=C(Br)CCC=C1)NC(=O)N1CCOCC1)S(=O)(=O)c1ccc2c(c1)OCCO2	nM	=	980
CC(C)CN([C@H](CO)CCCCNC(=O)[C@@H](NS(=O)(=O)c1cccs1)C(c1ccccc1)c1ccccc1)S(=O)(=O)c1ccc(N)cc1	nM	=	64
COC(=O)N[C@H](C(=O)NCCCC[C@H](CO)N(CC(C)C)S(=O)(=O)c1cccc2cccnc12)C(c1ccccc1)c1ccccc1	nM	=	369
CC(C)CN([C@H](CO)CCCCNC(=O)[C@H](Cc1ccccc1Br)NC(=O)c1cnccn1)S(=O)(=O)c1ccc(N)cc1	nM	=	60

====

system: HIV-1 viral strain NL4-3; assay: Anti-viral assay in vitro (MTT, infected MT-4 cells, six days); type: cell-based; conditions: Human immunodeficiency virus 1, NL43, MT4, 144 h, read-out: ANTI-HIV-EC50 VIRAL STRAIN NL4-3
Quantity name: EC50 (nM)

Compound	Quantity name	Readout units	Inequality sign	Observed result
COC(=O)N[C@H](C(=O)NCCCC[C@@H](CO)N(Cc1cccnc1)S(=O)(=O)c1ccc(N)cc1)C(c1ccccc1)c1ccccc1	EC50	nM	=	196
CC(=O)N[C@H](C(=O)NCCCCC(C(N)=O)N(CC(C)C)S(=O)(=O)c1ccc(N)cc1)C(c1ccccc1)c1ccccc1 (stereo partly drawn)	EC50	nM	=	238
Cc1ccc(C(=O)N[C@@H](CC2CCCCC2)C(=O)NCCCC[C@@H](CO)N(CC(C)C)S(=O)(=O)c2ccc(N)cc2)cn1	EC50	nM	>	5000
CC(C)CN([C@H](CO)CCCCNC(=O)[C@@H](Cc1ccccc1Br)NC(=O)c1ccc2c(c1)OCO2)S(=O)(=O)c1ccc(N)cc1	EC50	nM	=	43
Cc1ncccc1C(=O)N[C@@H](Cc1ccccc1Cl)C(=O)NCCCC[C@@H](CO)N(CC(C)C)S(=O)(=O)c1ccc(N)cc1	EC50	nM	=	422
Cc1ccc(C(=O)N[C@@H](Cc2ccccc2Br)C(=O)NCCCC[C@@H](CO)N(CC(C)C)S(=O)(=O)c2ccc(N)cc2)cc1O	EC50	nM	=	60

====

target: HIV-1 Protease (Human immunodeficiency virus type 1 group M subtype B (isolate HXB2) (HIV-1)); test: Enzymatic (FRET fluorometric) assay for determining the inhibition constant (Ki) of compounds targeting the HIV protease; assay type: biochemical; conditions: KIGRAPHIC ENZYME HIV-1 Protease, Ki determined graphically; read-out: […] ENZYME HIV-1 Protease
This section presents compounds with their documented Ki values.
Quantity name: Ki

Line notation	Quantity name	Observed result
Cc1c(O)cccc1C(=O)N[C@@H](Cc1ccccc1Br)C(=O)NCCCC[C@@H](CO)N(CC(C)C)S(=O)(=O)c1ccc(N)cc1	Ki	0.26 nM
CC(C)CN([C@H](CO)CCCCNC(=O)[C@@H](NC(=O)c1cccc(O)n1)C(c1ccccc1)c1ccccc1)S(=O)(=O)c1ccc2c(c1)OCO2	Ki	0.47 nM
CC(C)CN([C@H](CO)CCCCNC(=O)[C@H](Cc1ccccc1Br)NC(=O)c1cnccn1)S(=O)(=O)c1ccc(N)cc1	Ki	0.318 nM

====

test system: HIV-1 viral strain NL4-3; assay: Anti-viral assay in vitro (MTT, infected MT-4 cells, six days); format: cell-based; details: Human immunodeficiency virus 1, NL43, MT4, 144 h, read-out: ANTI-HIV-EC50 VIRAL STRAIN NL4-3
pEC50: −log10 of the molar value.
Quantity name: pEC50

Line notation	Inequality sign	Observed result
COC(=O)N[C@@H](CC1CCCCC1)C(=O)NCCCC[C@@H](CO)N(CC(C)C)S(=O)(=O)c1ccc(N)cc1	<	5.30
Cc1ccc(C(=O)N[C@@H](Cc2ccccc2Br)C(=O)NCCCC[C@@H](CO)N(CC(C)C)S(=O)(=O)c2ccc(N)cc2)cn1	=	7.26
CC(C)CN([C@H](CO)CCCCNC(=O)[C@H](CC1CCCCC1)NC(=O)c1cccnc1)S(=O)(=O)c1ccc(N)cc1	<	5.30
COC(=O)N[C@H](C(=O)NCCCC[C@H](CO)N(CC(C)C)S(=O)(=O)c1ccc2c(c1)N(C)CCO2)C(c1ccccc1)c1ccccc1	<	4.30
CC(C)CN([C@H](CO)CCCCNC(=O)[C@H](Cc1ccccc1Br)NC(=O)OCc1ccncc1)S(=O)(=O)c1ccc(N)cc1	=	6.61
Cc1ccc(C(=O)N[C@@H](Cc2ccccc2C)C(=O)NCCCC[C@@H](CO)N(CC(C)C)S(=O)(=O)c2ccc(N)cc2)cn1	=	6.70
CC(C)CN([C@H](CO)CCCCNC(=O)[C@@H](NC(=O)N1CCOCC1)C(c1ccccc1)c1ccccc1)S(=O)(=O)c1ccc2c(c1)CCO2	=	6.00
Cc1ccc(C(=O)N[C@@H](Cc2ccccc2C)C(=O)NCCCC[C@@H](CO)N(CC(C)C)S(=O)(=O)c2ccc(N)cc2)cc1O	=	6.78
